molecular target: T1, human glucagon receptor (human, UniProt P47871 26-477); assay: displacement of 125I-glucagon, membranes with human glucagon receptor, SPA
T1 construct: whole, on cells; the potency assay used whole cells (clone pLJ6'-4-25); also called GlucR; hGCGR
T1 sequence (P47871 26-477): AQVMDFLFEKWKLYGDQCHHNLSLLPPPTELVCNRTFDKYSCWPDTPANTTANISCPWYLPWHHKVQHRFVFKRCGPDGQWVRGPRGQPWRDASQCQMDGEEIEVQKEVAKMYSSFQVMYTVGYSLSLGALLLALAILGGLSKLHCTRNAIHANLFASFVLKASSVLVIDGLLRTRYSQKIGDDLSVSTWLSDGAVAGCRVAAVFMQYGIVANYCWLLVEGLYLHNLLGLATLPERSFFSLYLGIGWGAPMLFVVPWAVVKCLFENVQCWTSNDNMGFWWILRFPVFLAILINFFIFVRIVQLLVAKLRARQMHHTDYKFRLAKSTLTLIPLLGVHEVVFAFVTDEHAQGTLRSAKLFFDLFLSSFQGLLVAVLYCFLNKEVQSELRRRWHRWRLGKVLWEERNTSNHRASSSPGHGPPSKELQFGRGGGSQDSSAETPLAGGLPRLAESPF
Numbered stars: 1 amine (or outer) side, 2 acyl side, 3 side chain; on linkers, the order of the positions; unused ones are H or OH. Square brackets hold non-standard residues; d marks the D form. Side chains are listed from the residue outwards. Ends that are not written are not given here. * marks the point of attachment. C18 diacid = O=C(O)CCCCCCCCCCCCCCCCC(=O)*; γGlu = O=C(O)[C@H](CCC(=O)[*:2])N[*:1]; Ac4c = NC1(C(=O)O)CCC1; Aib = CC(C)(N)C(=O)O
Reported pIC50 values are given for each entry in this list.
Conceptually, pIC50 converts a concentration in mol/L into minus its log10.

Take a look at these entries with their results.
Binder	Reported Value
H[Aib]QGTFTSDLSKYLESKRAREFVQWLLKT-NH2 (not fully specified)	8.15
H[Aib]QGTFTSDLSKYLDKRRAREFVAWLLNT-NH2 (not fully specified (residue 16))	8.07

Enquiry: Please indicate pIC50 recorded for H[Aib]QGTFTSDLSKYLDLRRARDFVQWLLK([Gly-Ser-Glu-Ser-γGlu-γGlu-C18 diacid])T-NH2
Return: 7.74

Enquiry: Please indicate pIC50 recorded for H[Aib]QGTFTSDLSKYLESKRAREFVQWLLK([Gly-Ser-Glu-Gly-Ser-γGlu-γGlu-C18 diacid])T-NH2
Return: 8.29

Enquiry: Please indicate pIC50 recorded for H[Ac4c]QGTFTSDLSKYLESKRAREFVQWLLK([γGlu-γGlu-Ser-Glu-Ser-γGlu-γGlu-C18 diacid])T-NH2
Return: 9.22

Enquiry: Please indicate pIC50 recorded for H[Ac4c]QGTFTSDLSKYLESKRAREFVQWLLK([Gly-Ser-Glu-Gly-Ser-γGlu-γGlu-C18 diacid])T-NH2
Return: 9.22

Enquiry: Please indicate pIC50 recorded for H[Aib]HGTFTSDLSKYLESRRARDFVQWLLK([Gly-Ser-Glu-Gly-Ser-γGlu-γGlu-C18 diacid])T-NH2
Return: 10.00

Enquiry: Please indicate pIC50 recorded for H[Aib]QGTFTSDLSKYLESKRARSFVQWLLK([γGlu-γGlu-Ser-Glu-Ser-γGlu-γGlu-C18 diacid])T-NH2
Return: 8.02

Enquiry: Please indicate pIC50 recorded for H[Aib]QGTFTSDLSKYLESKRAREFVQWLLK([γGlu-γGlu-Ser-Glu-Ser-γGlu-γGlu-C18 diacid])T-NH2
Return: 8.77

Enquiry: Please indicate pIC50 recorded for H[Aib]QGTFTSDLSKYLDKRAAREFVAWLLNT-NH2 (not fully specified)
Return: 7.96
